- method description: Antagonist activity at NMDA receptor (unknown origin)
- Set-up: species or system Homo sapiens
assay metric: IC50

GET /values?readout=IC50&item= O=C(O)[C@H]1C[C@@H](Cc2nnn[nH]2)CCN1 (single isomer, unassigned)
100 nM

* * *

- tgt: Type-1 angiotensin II receptor (Homo sapiens)
assay metric: pIC50
Please report pIC50 as the negative decimal logarithm of the molar concentration, giving only the number.

Lab note: need pIC50 for O=P(O)(O)CN[C@@H](Cc1ccc(-c2ccccc2)cc1)c1nnn[nH]1 on Type-1 angiotensin II receptor (Homo sapiens), anyone have it?
9.05

* * *

- System: HUVEC
- method description: Antiproliferative activity against HUVEC cells assessed as inhibition of cell proliferation incubated for 72 hrs by Cell Titer Luminescence assay
- Type: functional, cell-based
- condition details: Homo sapiens
assay metric: pIC50
Please report pIC50 as the negative decimal logarithm of the molar concentration, giving only the number.

GET /values?readout=pIC50&item= CCC(C)n1ncn(-c2ccc(N3CCN(c4ccc(OC[C@@H]5CO[C@@](Cn6ncnn6)(c6ccc(Cl)cc6Cl)O5)cc4)CC3)cc2)c1=O (stereo partly specified)
7.14

* * *

- Test system: Pseudomonas aeruginosa
- method description: Antibacterial activity against Pseudomonas aeruginosa assessed as bacterial growth inhibition after 24 hrs by broth macro dilution method
- Assay type: functional
assay metric: MIC (µg/mL)
Answer with a number only, understood to be in µg/mL.

Solved entries (count: 4):
Cn1ncc2cc(-n3cc(CSc4nnnn4-c4cccc(O)c4)nn3)ccc21 :: 5
Cn1ncc2cc(-n3cc(CSc4nnnn4-c4cccc(F)c4)nn3)ccc21 :: 5
Cn1ncc2cc(-n3cc(CSc4nnnn4-c4ccc(F)cc4F)nn3)ccc21 :: 5
CO/N=C1\CN(c2nc3c(cc2F)c(=O)c(C(=O)O)cn3C2CC2)CC1CN (stereo not given) :: 10

Alright, here's another compound for you.
GET /values?readout=MIC&item= Cn1ncc2cc(-n3cc(CSc4nnnn4-c4cccc([N+](=O)[O-])c4)nn3)ccc21
5

* * *

- method description: Antiproliferative activity against human RWPE-1 cells assessed as inhibition of cell growth measured after 24 hrs by MTT assay
- Assay type: toxicity, cell-based
assay metric: IC50 at 24 h
Answers without a unit are incomplete; give the number and then its unit.

GET /values?readout=IC50 at 24 h&item= O=C1N(Cc2ccc(Br)cc2)c2ccccc2C1(O)Cc1nnn[nH]1 (stereo unspecified)
76 µM

* * *

- System: PC-3
- method description: Antiproliferative activity against human PC-3 cells assessed as inhibition of cell growth measured after 24 hrs by MTT assay
- Type: functional, cell-based
- condition details: PC-3, 24 h
assay metric: IC50 (µM)
Answer with a number only, understood to be in µM.

GET /values?readout=IC50&item= O=C1N(Cc2ccc(Br)cc2)c2ccccc2C1(O)Cc1nnn[nH]1 (stereo unspecified)
10.1

Reference source: ChEMBL document CHEMBL6127075
